test system: rodent lifetime carcinogenesis bioassay, tumor incidence TD50; assay: carcinogenic potency in animals, long-term in vivo studies, CPDB compilation (AID 1745844); details: rat; strain Fischer 344; females; by gavage; site: adrenal medulla; lesion: pheochromocytoma; dosed 103 weeks; study length 104 weeks
Parameter: TD50

Provide TD50 value for the following compound: S=c1[nH]c2ccccc2s1
805 mg/kg/day

====

system: rodent lifetime carcinogenesis bioassay, tumor incidence TD50; experiment: carcinogenic potency in animals, long-term in vivo studies, CPDB compilation (AID 1745844); details: rat; strain Charles River CD (Sprague-Dawley); males; inhaled; site: nasal cavity, respiratory epithelium; lesion: adenoma; dosed 104 weeks; study length 104 weeks
Parameter: TD50

Provide TD50 value for the following compound: C=CN1CCCC1=O
11.7 mg/kg/day

====

system: rodent lifetime carcinogenesis bioassay, tumor incidence TD50; experiment: carcinogenic potency in animals, long-term in vivo studies, CPDB compilation (AID 1745844); settings: mouse; strain B6C3F1; males; inhaled; site: liver; lesion: hepatocellular adenoma; dosed 26 weeks; study length 104 weeks
Parameter: TD50

Provide TD50 value for the following molecule: C=CC=C
27.8 mg/kg/day

====

system: rodent lifetime carcinogenesis bioassay, tumor incidence TD50; assay: carcinogenic potency in animals, long-term in vivo studies, CPDB compilation (AID 1745844); settings: rat; strain Fischer 344; males; in drinking water; site: coccyx + humerus + vertebra; lesion: osteosarcoma; dosed 103 weeks; study length 104 weeks
Parameter: TD50

Provide TD50 value for the following compound: F
109 mg/kg/day

====

tested on: rodent lifetime carcinogenesis bioassay, tumor incidence TD50; experiment: carcinogenic potency in animals, long-term in vivo studies, CPDB compilation (AID 1745844); conditions: mouse; strain NMRI; females; inhaled; site: kidney; lesion: cystadenoma; dosed 52 weeks; study length 98 weeks
Parameter: TD50

Check rodent lifetime carcinogenesis bioassay, tumor incidence TD50 data and give TD50 for ClC#CCl .
1.03 mg/kg/day

====

test system: rodent lifetime carcinogenesis bioassay, tumor incidence TD50; test: carcinogenic potency in animals, long-term in vivo studies, CPDB compilation (AID 1745844); settings: rat; strain Fischer 344; males; in feed; site: body cavities + multiple organs + spleen; lesion: mesothelioma, NOS + fibrosarcoma + hemangiosarcoma + sarcoma, NOS; dosed 103 weeks; study length 107 weeks
Parameter: TD50 (mg/kg/day)
Just the number please, in mg/kg/day, no unit attached.

Check rodent lifetime carcinogenesis bioassay, tumor incidence TD50 data and give TD50 for Nc1ccccc1 .
88

====

system: rodent lifetime carcinogenesis bioassay, tumor incidence TD50; assay: carcinogenic potency in animals, long-term in vivo studies, CPDB compilation (AID 1745844); conditions: mouse; strain Swiss albino; females; by gavage; site: lung; lesion: adenoma; dosed 52 weeks; study length 141 weeks
Parameter: TD50 (mg/kg/day)
Just the number please, in mg/kg/day, no unit attached.

Provide TD50 value for the following compound: N#[N+]c1ccccc1
27.1

====

system: rodent lifetime carcinogenesis bioassay, tumor incidence TD50; assay: carcinogenic potency in animals, long-term in vivo studies, CPDB compilation (AID 1745844); details: rat; strain Fischer 344; females; inhaled; site: brain; lesion: medulloblastoma, malignant; dosed 105 weeks; study length 105 weeks
Parameter: TD50 (mg/kg/day)
Just the number please, in mg/kg/day, no unit attached.

Provide TD50 value for the following compound: C=CC(=C)C
52800

====

system: rodent lifetime carcinogenesis bioassay, tumor incidence TD50; experiment: carcinogenic potency in animals, long-term in vivo studies, CPDB compilation (AID 1745844); conditions: mouse; strain B6C3F1; males; inhaled; site: liver; lesion: hepatocellular carcinoma; dosed 80 weeks; study length 96 weeks
Parameter: TD50

Provide TD50 value for the following compound: C=CC(=C)C
3290 mg/kg/day

====

test system: rodent lifetime carcinogenesis bioassay, tumor incidence TD50; assay: carcinogenic potency in animals, long-term in vivo studies, CPDB compilation (AID 1745844); details: rat; strain Fischer 344; males; in drinking water; site: liver; lesion: hyperplastic nodule; dosed 50 weeks; study length 114 weeks
Calls of active or inactive are those of the source. How the calls were made is not given here.
Exercise: state measured TD50 for each of the compounds provided.

Provide TD50 value for the following compound: CN(N=O)c1ccc([N+](=O)[O-])cc1
5.87 mg/kg/day (inactive)

Provide TD50 value for the following compound: CN(N=O)c1ccc(F)cc1
10.3 mg/kg/day

====

tested on: rodent lifetime carcinogenesis bioassay, tumor incidence TD50; experiment: carcinogenic potency in animals, long-term in vivo studies, CPDB compilation (AID 1745844); settings: rat; strain Sprague-Dawley; females; inhaled; site: liver; lesion: hepatoma; dosed 52 weeks; study length 131 weeks
Parameter: TD50

Check rodent lifetime carcinogenesis bioassay, tumor incidence TD50 data and give TD50 for C=CCl .
244 mg/kg/day

====

test system: rodent lifetime carcinogenesis bioassay, tumor incidence TD50; assay: carcinogenic potency in animals, long-term in vivo studies, CPDB compilation (AID 1745844); settings: mouse; strain Charles River CD1; females; in feed; site: any site (literature study); lesion: several types; types named in the paper; dosed 78 weeks; study length 78 weeks
Calls of active or inactive are those of the source. How the calls were made is not given here.
Parameter: TD50

Provide TD50 value for the following compound: Cc1ccccc1OCC(O)CNCCn1cc(C)c(=O)[nH]c1=O (configuration not stated)
52.3 mg/kg/day

Provide TD50 value for the following compound: Cc1ccc(C)c(OCCCC(C)(C)C(=O)O)c1
1690 mg/kg/day (inactive)

====

system: rodent lifetime carcinogenesis bioassay, tumor incidence TD50; assay: carcinogenic potency in animals, long-term in vivo studies, CPDB compilation (AID 1745844); details: rat; strain Sprague-Dawley; females; inhaled; site: any site (literature study); lesion: several types; types named in the paper; dosed 25 weeks; study length 135 weeks
Parameter: TD50 (mg/kg/day)
Just the number please, in mg/kg/day, no unit attached.

Provide TD50 value for the following compound: C=CCl
51.5

====

system: rodent lifetime carcinogenesis bioassay, tumor incidence TD50; assay: carcinogenic potency in animals, long-term in vivo studies, CPDB compilation (AID 1745844); conditions: mouse; strain Charles River CD1; females; in feed; site: lung; lesion: adenoma; dosed 78 weeks; study length 92 weeks
Activity calls are given as the source filed them. How the calls were made is not given here.
Parameter: TD50

Provide TD50 value for the following molecule: CC(C)NCC(O)c1ccc(NS(C)(=O)=O)cc1 (stereo unspecified)
3500 mg/kg/day (inactive)

====

test system: rodent lifetime carcinogenesis bioassay, tumor incidence TD50; assay: carcinogenic potency in animals, long-term in vivo studies, CPDB compilation (AID 1745844); settings: mouse; strain B6C3F1; females; inhaled; site: Harderian gland; lesion: adenoma; dosed 103 weeks; study length 104 weeks
Parameter: TD50 (mg/kg/day)
Just the number please, in mg/kg/day, no unit attached.

Provide TD50 value for the following molecule: CCc1ccccc1
9070

====

test system: rodent lifetime carcinogenesis bioassay, tumor incidence TD50; assay: carcinogenic potency in animals, long-term in vivo studies, CPDB compilation (AID 1745844); details: rat; strain Fischer 344; males; inhaled; site: thyroid gland; lesion: carcinoma; dosed 52 weeks; study length 130 weeks
Parameter: TD50 (mg/kg/day)
Just the number please, in mg/kg/day, no unit attached.

Provide TD50 value for the following molecule: NN
1.6

====

test system: rodent lifetime carcinogenesis bioassay, tumor incidence TD50; assay: carcinogenic potency in animals, long-term in vivo studies, CPDB compilation (AID 1745844); conditions: rat; strain Fischer 344; males; in feed; site: urinary bladder; lesion: transitional-cell carcinoma; dosed 78 weeks; study length 105 weeks
Parameter: TD50

Provide TD50 value for the following compound: Nc1ccc(Cl)cc1N
363 mg/kg/day

====

system: rodent lifetime carcinogenesis bioassay, tumor incidence TD50; test: carcinogenic potency in animals, long-term in vivo studies, CPDB compilation (AID 1745844); conditions: mouse; strain B6C3F1; females; inhaled; site: lung; lesion: adenoma; dosed 78 weeks; study length 104 weeks
Parameter: TD50 (mg/kg/day)
Just the number please, in mg/kg/day, no unit attached.

Provide TD50 value for the following compound: ClCCl
3590

====

system: rodent lifetime carcinogenesis bioassay, tumor incidence TD50; assay: carcinogenic potency in animals, long-term in vivo studies, CPDB compilation (AID 1745844); conditions: rat; strain Osborne-Mendel; males; in feed; site: thyroid gland; lesion: follicular-cell adenoma + follicular-cell carcinoma; dosed 78 weeks; study length 111 weeks
Parameter: TD50

Provide TD50 value for the following compound: Clc1ccc(C(c2ccc(Cl)cc2)C(Cl)Cl)cc1
75.8 mg/kg/day

====

tested on: rodent lifetime carcinogenesis bioassay, tumor incidence TD50; test: carcinogenic potency in animals, long-term in vivo studies, CPDB compilation (AID 1745844); settings: mouse; strain B6C3F1; females; oral dosing; site: any site (literature study); lesion: several types; types named in the paper; dosed 81 weeks; study length 81 weeks
Parameter: TD50

Provide TD50 value for the following compound: CCCc1ccc2c(c1)OCO2
170 mg/kg/day

Provide TD50 value for the following compound: CCN(CC)C(=S)S[Se](SC(=S)N(CC)CC)(SC(=S)N(CC)CC)SC(=S)N(CC)CC
3.46 mg/kg/day
